target: TRAIL/TNFSF10 (R&D Systems, cat. no. 375-TL/CF) (UniProt P50591 114-281); assay: ELISA, antigen coated at 1 µg/ml, Fab titrated
Sequence (P50591 114-281 limits assumed): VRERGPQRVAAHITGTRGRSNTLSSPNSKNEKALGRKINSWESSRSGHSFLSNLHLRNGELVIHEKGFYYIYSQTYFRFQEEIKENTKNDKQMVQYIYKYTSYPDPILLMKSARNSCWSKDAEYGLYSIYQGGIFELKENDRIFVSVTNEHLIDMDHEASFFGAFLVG
measured_endpoint: binding result

{"binder": "Clone X-V Fab (Fab, V domains shown, Fab) VH: QVQLVQSGAEVKKPGASVKVSCKASGFDIQDTYMHWVRQAPGQGLEWMGRIDPASGHTKYDPKFQVRATITTDTSASTAYLQLSSLRSEDTAVYYCARSGGLPDFWGQGTTVTVSS VL: EIVLTQSPGTLSLSPGERATLSCRASSSVSYMYWYQQKPGQAPRLLIYATSNLASGIPDRFSGSGSGTDFTLTISRLEPEDFAVYYCQQWSGNPRTFGGGTKLEIK", "value_measured": "no binding"}
{"binder": "Clone 34 Fab (Fab, V domains shown, Fab; also called variant 34) VH: QVQLVQSGAEVKKPGASVKVSCKASGFDIQDTYMHWVRQAPGQGLEWMGRIEPASGHIKYDPKFQGRVTMTRDTSTSTVYMELSSLRSEDTAVYYCARSGGLPDWWGQGTTVTVSS VL: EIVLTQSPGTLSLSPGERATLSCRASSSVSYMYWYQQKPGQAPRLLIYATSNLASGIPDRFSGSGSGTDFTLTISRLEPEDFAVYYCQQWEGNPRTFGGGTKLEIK", "value_measured": "no binding"}
{"binder": "Clone 3-17L Fab (Fab, V domains shown, Fab) VH: QVQLVQSGAEVKKPGASVKVSCKASGFDIQDTYMHWVRQAPGQGLEWMGRIDPASGHLKYDPKFQGRVTITRDTSASTVYMELSSLRSEDTAVYYCARSGGLPDMWGQGTTVTVSS VL: EIVLTQSPGTLSLSPGERATLSCRASSSVSYMYWYQQKPGQAPRLLIYATSNLASGIPDRFSGSGSGTDFTLTISRLEPEDFAVYYCQQWQGNPRTFGGGTKLEIK", "value_measured": "no binding"}
